- SYSTEM: histamine (Cavia porcellus)
- Construct: from tissue
- Sequence (P31389 whole entry): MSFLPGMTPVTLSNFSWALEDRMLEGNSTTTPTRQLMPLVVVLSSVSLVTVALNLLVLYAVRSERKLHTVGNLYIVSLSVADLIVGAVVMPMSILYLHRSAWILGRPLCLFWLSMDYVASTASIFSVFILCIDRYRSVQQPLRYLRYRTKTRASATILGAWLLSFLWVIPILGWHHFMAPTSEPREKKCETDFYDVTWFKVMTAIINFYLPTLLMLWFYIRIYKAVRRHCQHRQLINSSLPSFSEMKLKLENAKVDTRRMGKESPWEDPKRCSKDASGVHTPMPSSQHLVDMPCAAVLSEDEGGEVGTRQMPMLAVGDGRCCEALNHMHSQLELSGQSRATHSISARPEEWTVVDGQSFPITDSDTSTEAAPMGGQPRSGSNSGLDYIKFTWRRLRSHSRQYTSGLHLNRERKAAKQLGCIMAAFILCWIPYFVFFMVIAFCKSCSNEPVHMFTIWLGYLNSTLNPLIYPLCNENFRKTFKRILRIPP
- ASSAY_SUMMARY: Antihistamine activity by the method of Alps et al.
- MEASUREMENT_SETUP: pA2 (antihistamine activity), Table 2
Record form. Attribute: Kb. Fill in for each entry.
// return numeric value only (unit: nM, not printed)

Query: I'd like to know its Kb. The compound in question is O=C(NC1CCN(CCCc2ccccc2)CC1)c1ccccc1 [Example 39, 1-[3-Phenylpropyl]-4-benzamidopiperidine]
Response: 3.16

Query: Can you look up the measured Kb of O=C(NC1CCN(CCCC(O)c2ccc(F)cc2)CC1)c1ccccc1 (stereo not shown) for me?
Response: 316

Query: Quick one: Kb for `O=C(CCCN1CCC(NC(=O)c2ccccc2)CC1)c1ccc(F)cc1` ?
Response: 2.51

Query: I would be grateful if you could share the reported Kb for `O=C(CCCN1CCC(NC(=O)c2ccccc2)CC1)c1ccccc1` .
Response: 0.316

====

- SYSTEM: histamine (Cavia porcellus)
- Construct: from tissue
- ASSAY_SUMMARY: Antihistamine activity by the method of Alps et al.
- MEASUREMENT_SETUP: Table 4; read-out: Antihistamine pA2 (converted)
Give measured Kb for each item. Keep answers brief.

Query: # lookup: Kb of `O=C(CCCN1CCC(NC(=O)c2ccccc2)CC1)c1ccc(O)cc1`
Response: 1.26 nM

Query: Given the molecule `O=C(NC1CCN(CCc2ccc(Cl)c(Cl)c2)CC1)c1ccccc1` , what is its reported Kb?
Response: 3.98 nM

Query: Suppose we examine the molecule `O=C(CCCN1CCC(NC(=O)c2ccccc2)CC1)c1ccc(Cl)cc1` ; what Kb value has been reported?
Response: 20 nM

Query: Request the reported Kb associated with `O=C(NC1CCN(CCCCc2ccccc2)CC1)c1ccccc1`
Response: 39.8 nM

Query: Report Kb for `O=C(NC1CCN(CCc2ccc3ccccc3c2)CC1)c1ccccc1` please.
Response: 25.1 nM

Query: Can you share its Kb? I mean this molecule: CC(=O)Nc1ccc(OCC(O)CN2CCC(NC(=O)c3ccccc3)CC2)cc1 (stereo not drawn)
Response: 100 nM

Query: Looking for the measured Kb of `Cc1ccc(C(=O)CCCN2CCC(NC(=O)c3ccccc3)CC2)c(C)c1` , can you help?
Response: 10 nM

Query: Field request: Kb | item: O=C(NC1CCN(CCCC(O)c2ccc3c(c2)CCCC3)CC1)c1ccccc1 (stereo not drawn)
Response: 100 nM

Query: # Kb lookup, item `Cc1ccc(C)c(C(=O)CCCN2CCC(NC(=O)c3ccccc3)CC2)c1`
Response: 20 nM

Query: What does the record list as Kb for `O=C(NC1CCN(CCCCc2ccc(F)cc2)CC1)c1ccccc1` ?
Response: 31.6 nM

Query: Return reported Kb; argument: O=C(NC1CCN(CCCc2ccccc2)CC1)c1ccccc1 [Example 39, 1-[3-Phenylpropyl]-4-benzamidopiperidine]
Response: 2.51 nM

Query: For the molecule shown here, `O=C(CCCN1CCC(NC(=O)c2ccccc2)CC1)c1ccccc1` , give the reported Kb.
Response: 0.251 nM

====

- Tested on: blood pressure and heart rate
- ASSAY_SUMMARY: Method 1 (rat): hypotensive activity in anaesthetised rats, i.v.
- MEASUREMENT_SETUP: anaesthetised rat, i.v., cumulative dose
QUANTITY_KIND: Significant bradycardia (dose; decrease in heart rate of more than 30%)

Query: Which measured Significant bradycardia (dose; decrease in heart rate of more than 30%) belongs to `O=C(CCCN1CCC(NC(=O)c2ccccc2)CC1)c1ccccc1` , tested on blood pressure and heart rate?
Response: 0.8 to 1.6 mg/kg

Query: Lab note: need Significant bradycardia (dose; decrease in heart rate of more than 30%) with blood pressure and heart rate for entry O=C(NC1CCN(CCCC(O)c2ccc(F)cc2)CC1)c1ccccc1 (stereo not shown) , please look it up.
Response: 6.4 to 12.8 mg/kg

Query: Under blood pressure and heart rate: Significant bradycardia (dose; decrease in heart rate of more than 30%) value of O=C(NC1CCN(CCCc2ccccc2)CC1)c1ccccc1 [Example 39, 1-[3-Phenylpropyl]-4-benzamidopiperidine] ?
Response: 25.6 mg/kg

Query: // lookup Significant bradycardia (dose; decrease in heart rate of more than 30%) | system=blood pressure and heart rate | key= `O=C(CCCN1CCC(NC(=O)c2ccccc2)CC1)c1ccc(F)cc1`
Response: 1.6 mg/kg
